system tested: human arginase I (Homo sapiens, UniProt P05089)
Sequence (P05089 1-322): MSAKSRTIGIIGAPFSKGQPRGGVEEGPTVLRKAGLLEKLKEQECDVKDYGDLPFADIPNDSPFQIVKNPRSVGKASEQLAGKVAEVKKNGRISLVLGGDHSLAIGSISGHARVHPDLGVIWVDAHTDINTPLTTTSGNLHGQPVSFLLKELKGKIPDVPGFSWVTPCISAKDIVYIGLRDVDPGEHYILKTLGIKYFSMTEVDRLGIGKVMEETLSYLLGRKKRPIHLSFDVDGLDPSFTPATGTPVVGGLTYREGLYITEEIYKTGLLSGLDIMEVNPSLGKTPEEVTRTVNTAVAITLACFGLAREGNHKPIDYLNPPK
assay procedure: Arginase inhibition, QuantiChrom colorimetric urea assay, IC50 converted to Ki
Format: biochemical
settings: Table 3; pH 7.5; read-out: human Arginase I pH 7.5, Ki assigned value
measurement label: Ki

// worked examples, Ki included
                                   compound                             system_tested  result_value
0  NC(CCCCB(O)O)(CCCN1CCC(NC(=O)Nc2ccc(Cl)c(Cl)c2)C1)C(=O)O (stereo not drawn)  human arginase I (Homo sapiens, UniProt P05089)       < 10 nM
1  COc1ccc(C2CCN(CCCC(N)(CCCCB(O)O)C(=O)O)CC2)cc1 (stereo not drawn)  human arginase I (Homo sapiens, UniProt P05089)       < 10 nM
2  NC(CCCCB(O)O)(CCCCN1CCC(Cc2ccc(F)c(F)c2)CC1)C(=O)O (stereo not drawn)  human arginase I (Homo sapiens, UniProt P05089)  51 to 100 nM

// for each compound in input: emit Ki
1. CN(C)CCN(C)CCCC(N)(CCCCB(O)O)C(=O)O (stereo not drawn)
2. NC(CCCCB(O)O)(CCCN1CCCC1)C(=O)O (stereo not drawn)
3. NC(CCCCB(O)O)(CCCN1CCC(Oc2ccc(C(F)(F)F)cc2)CC1)C(=O)O (stereo not drawn)

["51 to 100 nM", "11 to 50 nM", "< 10 nM"]

// for each compound in input: emit Ki
1. CN1CCN(CCCC(N)(CCCCB(O)O)C(=O)O)C(c2ccccc2)C1 (stereo not drawn)
2. NC(CCCCB(O)O)(CCCN1CCN(C(=O)c2ccc(Cl)c(Cl)c2)CC1)C(=O)O (stereo not drawn)
3. NC(CCCCB(O)O)(CCCN1CCN(Cc2cccc(C(F)(F)F)c2)CC1)C(=O)O (stereo not drawn)

1: 11 to 50 nM; 2: 11 to 50 nM; 3: < 10 nM

* * *

system tested: human arginase II (Homo sapiens)
assay procedure: Arginase inhibition, QuantiChrom colorimetric urea assay, IC50 converted to Ki
Assay type: biochemical
settings: Table 2; pH 7.5; read-out: human arginase II pH 7.5, Ki assigned value
Experimental: For some compounds, their inhibitory potency at pH 7.5 was compared to the inhibitory potency of ABH at pH 7.5. Quantitative determination of arginase activity was performed in a 96-well format by a colorimetric method using the QuantiChrom™ Arginase Assay Kit available from BioAssay Systems (Hayward, Calif., Catalog No. DARG-200) according to the manufacturer's protocol. Modifications were made to reagent quantities to suit the assaying of a highly purified sample. […]
Where a name gives a salt, the structure may show the parent alone.
Would you mind telling me the reported Ki of each entry?

// worked examples, Ki included
In [3]: df
Out[3]:
                                   molecule   result_value
0  NC(CCCCB(O)O)(CCCN1CCC(Cc2ccc(F)c(F)c2)CC1)C(=O)O (stereo not drawn)   51 to 100 nM
1  NC(CCCCB(O)O)(CCCN1CCN(Cc2ccc(Cl)c(Cl)c2)CC1)C(=O)O (stereo not drawn)    11 to 50 nM
2  NC(CCCCB(O)O)(CCCC1CCN(Cc2ccc(Cl)c(Cl)c2)CC1)C(=O)O (stereo not drawn) [Comparative Example 2, reference compound]  101 to 250 nM
3  NC(CCCCB(O)O)(CCCN1CCNCC1)C(=O)O (stereo not drawn) [Comparative Example 4, trifluoroacetate salt, reference compound]       > 400 nM
4  NC(CCCCB(O)O)(CCCN1CCN(Cc2ccc(F)cc2)CC1)C(=O)O (stereo not drawn)    11 to 50 nM
5  NC(CCCCB(O)O)(CCCN1CCCCC1c1ccc(F)cc1)C(=O)O (stereo not drawn)  101 to 250 nM
6  N[C@@H](CCCCB(O)O)C(=O)O [ABH, 2(S)-amino-6-boronohexanoic acid]  101 to 250 nM
7  NC(CCCCB(O)O)(CCCC1CCN(Cc2ccc(F)cc2)CC1)C(=O)O (stereo not drawn) [Comparative Example 3, reference compound]  251 to 400 nM

Next molecule, please.
Given NC(CCCCB(O)O)(CCCC1CCNCC1)C(=O)O (stereo not drawn) [Comparative Example 1, reference compound] , respond with its Ki.
> 400 nM

* * *

Would you mind telling me the reported Ki of each entry?
system tested: human arginase II (Homo sapiens, UniProt P78540)
Sequence (P78540 23-354): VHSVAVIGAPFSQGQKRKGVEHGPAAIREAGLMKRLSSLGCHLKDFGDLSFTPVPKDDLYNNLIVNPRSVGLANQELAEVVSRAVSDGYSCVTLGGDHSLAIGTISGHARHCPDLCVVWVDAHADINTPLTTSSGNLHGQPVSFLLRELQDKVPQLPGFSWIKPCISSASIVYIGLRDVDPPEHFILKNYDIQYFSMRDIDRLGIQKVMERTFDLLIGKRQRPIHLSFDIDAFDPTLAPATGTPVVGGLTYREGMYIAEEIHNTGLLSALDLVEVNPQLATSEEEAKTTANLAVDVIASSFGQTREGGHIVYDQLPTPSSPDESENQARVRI
assay procedure: Arginase inhibition, QuantiChrom colorimetric urea assay, IC50 converted to Ki
Format: biochemical
settings: Table 3; pH 9.5; read-out: human Arginase II pH 9.5, Ki assigned value

// worked examples, Ki included
                                   molecule  measurement_label   result_value
0  NC(CCCCB(O)O)(CCCN1CCN(c2ccc(C(F)(F)F)cn2)CC1)C(=O)O (stereo not drawn) [Example 41]                 Ki    11 to 50 nM
1  NC(CCCCB(O)O)(CCCCN1CCC(Cc2ccc(F)c(F)c2)CC1)C(=O)O (stereo not drawn) [Example 95]                 Ki        < 10 nM
2  CN1CCN(CCCC(N)(CCCCB(O)O)C(=O)O)C(c2ccccc2)C1 (stereo not drawn) [Example 46]                 Ki        < 10 nM
3  NC(CCCCB(O)O)(CCCN1CCCC1)C(=O)O (stereo not drawn) [Example 56]                 Ki  101 to 250 nM
4  NC(CCCCB(O)O)(CCCn1cnc2ccccc21)C(=O)O (stereo not drawn) [Example 116]                 Ki    11 to 50 nM
5  NC(CCCCB(O)O)(CCCN1CCN(Cc2cccc(C(F)(F)F)c2)CC1)C(=O)O (stereo not drawn) [Example 9]                 Ki    11 to 50 nM
6  CN(CCCC(N)(CCCCB(O)O)C(=O)O)CCc1ccccc1 (stereo not drawn) [Example 68]                 Ki    11 to 50 nM
7  NC(CCCCB(O)O)(CCCNCCc1ccccc1)C(=O)O (stereo not drawn) [Example 67]                 Ki        < 10 nM

Given NC(CCCCB(O)O)(CCCN1CCC2(CC1)C(=O)NCN2c1ccccc1)C(=O)O (stereo not drawn) [Example 31] , respond with its Ki.
51 to 100 nM

* * *

Would you mind telling me the reported Ki of each entry?
system tested: UniProtKB P78540
assay procedure: Arginase inhibition, QuantiChrom colorimetric urea assay, IC50 converted to Ki
Assay type: biochemical
settings: Table 3; pH 9.5; read-out: human Arginase II pH 9.5, Ki assigned value

// worked examples, Ki included
>>> print(df.to_string())
                                   molecule  measurement_label      result_value
0  NC(CCCCB(O)O)(CCCN1CCc2ccccc2C1)C(=O)O (stereo not drawn) [Example 45]                 Ki  0.011 to 0.05 µM
1  NC(CCCCB(O)O)(CCCN1CCOCC1)C(=O)O (stereo not drawn) [Example 64]                 Ki   0.051 to 0.1 µM
2  CN(CCCC(N)(CCCCB(O)O)C(=O)O)C1CCCCC1 (stereo not drawn) [Example 78]                 Ki  0.011 to 0.05 µM
3  CS(=O)(=O)c1ccc(CN2CCN(CCCC(N)(CCCCB(O)O)C(=O)O)CC2)cc1 (stereo not drawn) [Example 10]                 Ki  0.011 to 0.05 µM
4  NC(CCCCB(O)O)(CCCN1CCC(Oc2ccc(C(F)(F)F)cc2)CC1)C(=O)O (stereo not drawn) [Example 34]                 Ki  0.011 to 0.05 µM
5  NC(CCCCB(O)O)(CCCN1CC(NC(=O)Nc2ccc(Cl)c(Cl)c2)C1)C(=O)O (stereo not drawn) [Example 60]                 Ki  0.011 to 0.05 µM
6  CN(CCCC(N)(CCCCB(O)O)C(=O)O)Cc1ccc2ccccc2c1 (stereo not drawn) [Example 120]                 Ki         < 0.01 µM
7  NC(CCCCB(O)O)(CCCN1C2CCC1CC(n1cnc3ccccc31)C2)C(=O)O (stereo not drawn) [Example 102]                 Ki  0.011 to 0.05 µM
8  NC(CCCCB(O)O)(CCCN1CCC(NC(=O)c2ccccc2)CC1)C(=O)O (stereo not drawn) [Example 44]                 Ki  0.011 to 0.05 µM
9  NC(CCCCB(O)O)(CCCN1CCC(O)(Cc2ccccc2)CC1)C(=O)O (stereo not drawn) [Example 39]                 Ki  0.011 to 0.05 µM

// for each molecule in input: emit Ki
1. NC(CCCCB(O)O)(CCCN1CCC(NS(=O)(=O)c2ccc(Cl)c(Cl)c2)C1)C(=O)O (stereo not drawn) [Example 114]
2. NC(CCCCB(O)O)(CCC1CCCCN1Cc1cc(F)cc(F)c1)C(=O)O (stereo not drawn) [Example 20]
3. NC(CCCCB(O)O)(CCCN1CCCC1c1ccc(-c2ccccc2)cc1)C(=O)O (stereo not drawn) [Example 54]
4. NC(CCCCB(O)O)(CCN1CCN(Cc2ccc(Cl)c(Cl)c2)CC1)C(=O)O (stereo not drawn) [Example 15]

1. 0.011 to 0.05 µM
2. 0.101 to 0.25 µM
3. 0.051 to 0.1 µM
4. 0.051 to 0.1 µM

// for each molecule in input: emit Ki
1. NC(CCCCB(O)O)(CCCN1CCCC(c2ccccc2)C1)C(=O)O (stereo not drawn) [Example 26]
2. NC(CCCCB(O)O)(CCCNC1CCCCC1)C(=O)O (stereo not drawn) [Example 77]
3. NC(CCCCB(O)O)(CCCN1CCN(Cc2cccc(F)c2F)CC1)C(=O)O (stereo not drawn) [Example 7]
4. NC(CCCCB(O)O)(CCCN1CC(c2ccccc2)C1)C(=O)O (stereo not drawn) [Example 58]

["0.011 to 0.05 µM", "0.011 to 0.05 µM", "0.051 to 0.1 µM", "0.011 to 0.05 µM"]

Reference source for all entries: patent US9447122B2
